- system_tested: T1, c-Met-Fc chimera protein (UniProt P08581 25-932, limits assumed)
- T1 construct: Captured on the SPR chip by an anti-IgG antibody; not shown: Fc part
- procedure_text: SPR presumed (Biacore as in 9-1; method not given), c-Met-Fc on chip
Bridges are numbered along the chain shown (N, C = ends). Where no end group is shown, it is not given here. [ ]: non-standard residue; d: D form. NMeW = CN[C@@H](Cc1c[nH]c2ccccc12)C(=O)O; NMeR = CN[C@@H](CCCNC(=N)N)C(=O)O; NMeQ = CN[C@@H](CCC(N)=O)C(=O)O; NMeC = CN[C@@H](CS)C(=O)O
Given measured koff, output 1 if it is greater than or equal to 0.006 s⁻¹ and 0 if not.

INSERT INTO measurements (binder, discrete_label) VALUES
  ('{CH2CO}-YRQFNRRTHEV[NMeW]NLDCG (thioether N-16) [N12, N-methylated D4-3 peptide]', 1),
  ('{CH2CO}-YR[NMeQ]FNRRTHEVWNLDCG (thioether N-16 (inferred)) [N3, N-methylated D4-3 peptide]', 0),
  ('{CH2CO}-Y[NMeR]QFNRRTHEVWNLDCG (thioether N-16 (inferred)) [N2, N-methylated D4-3 peptide]', 1),
  ('{CH2CO}-YRQFNRRTHEVWNLD[NMeC]G (thioether N-16 (inferred)) [N16, N-methylated D4-3 peptide]', 1);

Below: the item to evaluate.
Check this binder for koff at or above 0.006 s⁻¹: {CH2CO}-YRQFNRRTHEVWNLDCG (thioether N-16; not fully specified, also called D4-3 peptide; D4-3 Monomer) [D4-3]
1
